run description: small-molecule microarray binders of probe aCHRDL2, primary screen, biochemical, biotinylated probe, 635/667 nm fluorescence (AID 1100)
recorded conditions: higher = more signal
The entries below are paired with their reported composite z-score.

compound	composite z-score
COc1ccc(C#Cc2ccc3c(c2)[C@]2(C(=O)N3)[C@H](C(=O)NC[C@H](O)c3ccccc3)[C@H]3C(=O)O[C@H](c4ccccc4)[C@H](c4ccccc4)N3[C@@H]2c2ccccc2OCCO)cc1	0.334
COc1ccc(CCNC(=O)[C@@]2(c3ccc([N+](=O)[O-])cc3)CC(=O)N(CC34CC5CC(CC(C5)C3)C4)[C@@H]2c2ccc(CO)cc2)cc1	0.764
COCCOC(=O)N1C(=O)[C@@]2(c3cc(C#CCNC(N)=O)ccc31)[C@H](c1ccc(O)cc1)N1[C@H](c3ccccc3)[C@H](c3ccccc3)OC(=O)[C@H]1[C@@H]2C(=O)NC[C@H](O)c1ccccc1	0.689
N#Cc1ccc(NN2C(C(O)c3ccc([N+](=O)[O-])cc3)C=CC3C(=O)N(c4ccccc4)C(=O)C32)cc1 (centres undefined)	1.08
O=C1OCC=C[C@H]2OC34C=CCN(c5ccc(Cl)cc5)C(=O)[C@H]3N(CCCCCCO)C(=O)[C@@H]4[C@@H]12 (some centres undefined)	0.731
CC(=O)NCCCC[C@@H]1NC(=O)[C@@H]2C[C@H](C(=O)NCCCCCCNC(=O)CS)[C@H](c3ccc(O)cc3)N2C1=O	0.52
COc1ccc([Si](C)(C)[C@H]2[C@H](CC(=O)N(CCO)Cc3ccccc3)O[C@@]3(C(=O)N(Cc4cccc(N5CCC5=O)c4)c4ccccc43)[C@@H]2C)cc1	0.0014
C=C[C@H](COC(C)=O)N(Cc1ccc(OC(C)=O)c(OC)c1)S(=O)(=O)c1ccc(Br)cc1	0.612
C=C[C@H](C)[C@@H](O)c1ccc(O)c2ccccc12	-0.0488
COc1ccc(CCNC(=O)[C@@]2(Sc3ccc(C)cc3)CC(=O)N(Cc3ccccc3Cl)[C@@H]2c2ccc(CO)cc2I)cc1	0.989
CCCCCN1CC=CC23O[C@@H]4C=CCOC(=O)[C@@H]4[C@H]2C(=O)N(CCCO)[C@@H]3C1=O (some centres undefined)	0.359
O=C1C2C=CC(C(O)c3ccc(B(O)O)cc3)N(Nc3ccccc3)C2C(=O)N1c1ccccc1 (centres undefined)	0.634
COCCCNC(=O)[C@@]1(c2ccc([N+](=O)[O-])cc2)CC(=O)N(CC23CC4CC(CC(C4)C2)C3)[C@@H]1c1ccc(CO)cc1	-0.0133
CC(C)N1C(=O)[C@@]2(c3ccc([N+](=O)[O-])cc3)CC(=O)N(CC34CC5CC(CC(C5)C3)C4)[C@@H]2c2ccc(CO)cc21	0.226
COC(=O)[C@@]1(Cc2ccccc2)[C@H]2c3cc(C(=O)N4CCCC4)n(C)c3C[C@H]2CN1C(=O)c1ccccc1	0.892
C=CCNC(=O)[C@@H]1[C@H]2C(=O)O[C@H](c3ccccc3)[C@H](c3ccccc3)N2[C@H](c2ccc(OCCO)cc2)[C@@]12C(=O)Nc1ccccc12	-0.0808
C=C(CCCC)C(=O)CC[C@H](OC(=O)c1cccnc1)c1cccc(OCCO)c1	0.165
CCOC(=O)[C@H]1C/C=C/C[C@H](C(=O)OCC)C(=O)O[C@H]2[C@@H](OC)O[C@H](CO)[C@@H](OC(=O)Nc3ccc4c(c3)OCO4)[C@@H]2OC1=O	0.0193
CCCCC(O)C1C=CC2C(=O)N(C3CCCCC3)C(=O)C2N1Nc1ccc(OC)cc1 (centres undefined)	0.948
COC(=O)C(CC#Cc1ccc2c(c1)[C@]1(C(=O)N2)[C@H](c2ccc(OCCO)cc2)N2[C@H](c3ccccc3)[C@H](c3ccccc3)OC(=O)[C@H]2[C@@H]1C(=O)NC[C@H](O)c1ccccc1)C(=O)OC	0.473
Cc1ccc([C@H]2[C@H](C(=O)O)[C@H](Sc3ccccc3)[C@@H](C(C)C)N2S(=O)(=O)c2ccc(C)cc2)cc1	0.355
CN1C(=O)C2C=CC(C(O)c3ccccn3)N(Nc3ccccc3)C2C1=O (centres undefined)	0.276
C[N+](C)(C)CCCCCCNC(=O)[C@H]1C[C@H]2C(=O)N3CCC[C@H]3C(=O)N2[C@H]1c1ccc(O)cc1	-0.201
C=CC(=C)C1=CCO[C@@H]1[C@H]1CCCN1S(=O)(=O)c1ccccc1[N+](=O)[O-]	-0.268
COCCOC(=O)N1C(=O)[C@@]2(c3cc(C#CCC(C(=O)OC)C(=O)OC)ccc31)[C@H](c1ccccc1OCCO)N1[C@H](c3ccccc3)[C@H](c3ccccc3)OC(=O)[C@H]1[C@@H]2C(N)=O	0.188
CCN(CC)c1ccc(N2CC=CC34O[C@@H]5C=CCCOC(=O)C5[C@H]3C(=O)N(CCCCCO)[C@@H]4C2=O)cc1 (some centres undefined)	0.0109
CN1CCC(CCCO)=CC1c1ccc(CN2CCCC2)cc1 (centres undefined)	0.756
CCCCCCCCCCC(O)C1C=CC2C(=O)N(Cc3ccccc3)C(=O)C2N1n1cnnc1 (centres undefined)	0.739
CCOC(=O)C1=C[C@@H](CC)N(S(=O)(=O)c2ccc(C)cc2)[C@H]1c1ccccc1	0.521

Data credit: PubChem BioAssay
